Target: recombinant integrin α4β7 (Homo sapiens, UniProt P13612+P26010, DEL724-798)
Construct: purchased R&D Systems 5397-A3-050
Sequence (P13612 34-970 limits assumed, stated change not applied): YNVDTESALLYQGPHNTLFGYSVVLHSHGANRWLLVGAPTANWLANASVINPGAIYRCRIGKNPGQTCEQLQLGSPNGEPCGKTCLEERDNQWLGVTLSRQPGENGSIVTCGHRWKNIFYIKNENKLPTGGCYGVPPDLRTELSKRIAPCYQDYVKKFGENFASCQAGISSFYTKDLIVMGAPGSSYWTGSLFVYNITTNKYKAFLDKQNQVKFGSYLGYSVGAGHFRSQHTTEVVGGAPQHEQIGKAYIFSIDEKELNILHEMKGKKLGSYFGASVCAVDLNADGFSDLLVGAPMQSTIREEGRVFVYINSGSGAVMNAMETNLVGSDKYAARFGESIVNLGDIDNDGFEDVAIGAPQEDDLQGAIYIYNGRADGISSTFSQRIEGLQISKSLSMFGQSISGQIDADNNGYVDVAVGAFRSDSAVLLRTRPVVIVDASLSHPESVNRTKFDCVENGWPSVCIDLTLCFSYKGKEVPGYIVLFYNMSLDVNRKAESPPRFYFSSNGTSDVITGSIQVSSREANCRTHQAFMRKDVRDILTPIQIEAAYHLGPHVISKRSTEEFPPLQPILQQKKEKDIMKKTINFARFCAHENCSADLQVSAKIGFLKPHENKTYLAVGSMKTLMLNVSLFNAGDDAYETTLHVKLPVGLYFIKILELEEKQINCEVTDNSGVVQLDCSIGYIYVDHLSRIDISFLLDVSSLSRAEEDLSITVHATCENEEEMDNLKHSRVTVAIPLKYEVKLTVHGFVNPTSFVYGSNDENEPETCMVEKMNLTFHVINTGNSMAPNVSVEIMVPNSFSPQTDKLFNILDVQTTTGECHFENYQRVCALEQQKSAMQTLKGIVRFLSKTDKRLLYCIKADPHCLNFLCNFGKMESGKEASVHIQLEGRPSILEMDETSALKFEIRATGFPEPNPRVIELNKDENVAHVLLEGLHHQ
Sequence (P26010 20-723 limits assumed, stated change not applied): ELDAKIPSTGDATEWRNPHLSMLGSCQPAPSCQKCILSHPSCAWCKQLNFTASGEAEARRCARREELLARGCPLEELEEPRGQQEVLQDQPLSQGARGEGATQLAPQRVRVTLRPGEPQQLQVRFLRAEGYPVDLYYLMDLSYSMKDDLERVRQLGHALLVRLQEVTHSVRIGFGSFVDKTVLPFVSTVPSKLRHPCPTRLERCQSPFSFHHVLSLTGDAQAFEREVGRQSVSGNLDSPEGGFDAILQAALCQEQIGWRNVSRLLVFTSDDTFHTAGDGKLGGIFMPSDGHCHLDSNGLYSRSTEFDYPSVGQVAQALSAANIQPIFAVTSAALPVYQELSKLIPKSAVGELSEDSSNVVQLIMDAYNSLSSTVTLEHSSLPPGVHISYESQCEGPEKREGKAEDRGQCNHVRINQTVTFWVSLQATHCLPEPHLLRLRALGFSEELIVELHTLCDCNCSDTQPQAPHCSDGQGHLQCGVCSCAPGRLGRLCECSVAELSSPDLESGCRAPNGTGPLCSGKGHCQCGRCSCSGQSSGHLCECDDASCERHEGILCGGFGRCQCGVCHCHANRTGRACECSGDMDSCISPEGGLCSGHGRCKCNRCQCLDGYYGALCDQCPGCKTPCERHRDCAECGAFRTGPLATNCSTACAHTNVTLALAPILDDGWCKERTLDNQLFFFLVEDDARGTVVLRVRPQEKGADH
Assay: Integrin α4β7—MAdCAM-1 ELISA competition assay
Assay type: binding
Settings: ratio of a4b1 to a4b7 ELISA IC50
metric-name: ELISA Assay Ratio b1/b7
Lab note: jot the number down without any unit.

Tell me the measured ELISA Assay Ratio b1/b7 of "CC(C)C[C@@H]1NC(=O)C[C@H](CCCCN)NC(=O)[C@H](Cc2ccccc2-c2ccc(N3CCNCC3)cc2)NC(=O)[C@@H]2CCCN2[C@H](C(=O)NC(C)(C)C)[C@H](C)NC(=O)[C@H]([C@@H](C)O)NC(=O)[C@H](CC(=O)O)NC1=O" , please.
34.6
